# Test system: Fibroblast
# procedure_details: Multiplex assay against human fibroblast
# Type: toxicity, cell-based
# conditions_used: 12 h, 1 µM, compound concentration 1 uM, replicate 1
# Lookup of reported Population Apoptotic (%) keyed by entry
Kindly provide the numeric value in % only, without the unit symbol.

Some entries whose results are on file:
[[record]]
molecule = "Cl.Oc1ccc2c3c1O[C@H]1c4[nH]c5c(c4C[C@@]4(O)[C@@H](C2)N(CC2CC2)CC[C@]314)C[C@@]1(O)[C@H]2Cc3ccc(O)c4c3[C@@]1(CCN2CC1CC1)[C@H]5O4"
endpoint_value = 71

[[record]]
molecule = "C=C1/C(=C\\C=C2/CCC[C@]3(C)[C@@H]([C@H](C)/C=C/[C@H](C)C(C)C)CC[C@@H]23)C[C@@H](O)C[C@@H]1O"
endpoint_value = 63

[[record]]
molecule = "CCn1cc(-c2ccnc3[nH]c(-c4cccc(CN(C)C)c4)cc23)c(-c2ccc(NC(=O)N(C)C)cc2)n1"
endpoint_value = 80

[[record]]
molecule = "CCOC(=O)c1c(C)[nH]c2ccc3c(c12)CN1CCc2cc(OC)ccc2C1O3 (configuration not stated)"
endpoint_value = 69

[[record]]
molecule = "Cc1cn(-c2cc(NC(=O)c3ccc(C)c(Nc4nccc(-c5cccnc5)n4)c3)cc(C(F)(F)F)c2)cn1"
endpoint_value = 62

[[record]]
molecule = "CCNc1cc(N[C@H]2CC[C@H](O)CC2)nc(Nc2ccc3c(ccn3Cc3ccccc3)c2)n1"
endpoint_value = 76


Record S=C(NCCCc1c[nH]cn1)NCCCN(Cc1ccc(Cl)c(Cl)c1)c1ccc(Br)cn1 , field Population Apoptotic (%): 52
